Value source: PubChem BioAssay

Answer each item with its documented cell count.
- ASSAY_NAME: inhibitors of TNFa-induced NFkB p65 translocation, primary screen, imaging, HUVEC, MLSMR starter and 10KST1 sets (AID 438);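 further: compound added about 3h40 before a 20 min TNFalpha stimulation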
- CONDITION_DETAILS: HUVEC TNFa-induced p65 nuclear translocation; measured here: nuclei count (cytotoxicity indicator), at 2.08 µM
Answers are plain numbers.

{"COMPOUND": "COc1cc(C(c2sc3nc(C)nn3c2O)N2CC(C)CC(C)C2)cc(OC)c1OC (stereo unspecified)", "ASSAY_RESULT": 468}
{"COMPOUND": "Cc1nn(S(=O)(=O)N2CCCCC2)c(C)c1Br", "ASSAY_RESULT": 335}
{"COMPOUND": "CCc1c(C)c2c(C)nn(-c3ccccc3)c2[nH]c1=O", "ASSAY_RESULT": 292}

Your task in this section: give cell count for each listed record.
1. Cc1cc(C)nc(NC(=O)c2c(-c3c(Cl)cccc3Cl)noc2C)n1
2. Cn1c(=O)[nH]c(=O)c2c1nc(Br)n2Cc1ccccc1F
3. Cc1nc2cc(N3CCCCC3)c(NC(=O)c3cccnc3)cc2c(=O)n1Cc1ccccc1
4. COc1cccc(C(=O)NCc2nnc(SCC(=O)Nc3nccs3)n2-c2ccccc2)c1
5. Cc1onc(-c2c(Cl)cccc2Cl)c1C(N)=O
6. CC(=O)Nc1ccc(S(=O)(=O)N2CCN=C2C)cc1

1. 648
2. 668
3. 751
4. 756
5. 406
6. 246

Your task in this section: give cell count for each listed record.
1. COc1ccc(-n2c(Cc3cccn3C)nnc2SCC(=O)Nc2ccccc2)cc1
2. O=C(Nc1ccc(Cl)cn1)c1cccnc1

1. 527
2. 340
